# assay-target: rat FAAH protein (30-579) (Rattus norvegicus (Rat), UniProt P97612)
# Sequence (P97612 30-579): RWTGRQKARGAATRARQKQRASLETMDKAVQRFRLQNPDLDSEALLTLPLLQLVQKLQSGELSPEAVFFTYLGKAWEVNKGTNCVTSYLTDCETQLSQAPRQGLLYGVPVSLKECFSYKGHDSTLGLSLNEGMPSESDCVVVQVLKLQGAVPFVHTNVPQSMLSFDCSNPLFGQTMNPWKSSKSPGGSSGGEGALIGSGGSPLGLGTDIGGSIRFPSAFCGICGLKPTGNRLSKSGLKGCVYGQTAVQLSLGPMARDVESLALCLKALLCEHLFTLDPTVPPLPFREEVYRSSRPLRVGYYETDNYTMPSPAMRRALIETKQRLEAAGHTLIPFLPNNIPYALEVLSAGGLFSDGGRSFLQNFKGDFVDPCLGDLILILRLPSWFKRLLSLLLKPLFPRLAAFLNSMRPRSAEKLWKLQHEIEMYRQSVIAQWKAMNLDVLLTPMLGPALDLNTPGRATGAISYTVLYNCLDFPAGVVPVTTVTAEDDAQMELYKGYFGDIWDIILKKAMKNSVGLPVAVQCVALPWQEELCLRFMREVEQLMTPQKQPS
# assay-comment: Rat FAAH inhibition assay (AAMCA fluorescence)
# Format: biochemical
# applied-conditions: 3-hour pre-incubation with compound, 120 nM FAAH; read-out: FAAH Rat IC50 (nM) 180 minutes
property-label: IC50 (nM)
Form entry: value (nM) — number only.

{"chemical-string": "O=C(Nc1ccccc1F)N1CC(Oc2ccc(-c3ccccc3)cc2)C1", "IC50, nM": 77}
{"chemical-string": "O=C(Nc1cccc(F)c1)N1CC(Oc2ccc(-c3ccccc3)cc2)C1", "IC50, nM": 279}
{"chemical-string": "O=C(Nc1cccnc1)N1CC(Oc2ccc(-c3ccccc3)cc2)C1", "IC50, nM": 67}

In the following, a different compound is considered.
State its IC50: O=C(Nc1ccccc1)N1CC(Oc2ccc(-c3ccccc3)cc2)C1
135
